B1: KCNA1 (parent)
chain: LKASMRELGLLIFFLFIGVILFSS

variants of: B1; assay: protein stability index of a GFP-peptide fusion (GPS, HEK-293T) (PSI 1-6); higher = more stable; settings: c terminus: a fixed tail appended;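 also: lentivirally expressed fusions sorted by FACS into six bins by GFP to DsRed ratio, PSI derived from sequencing read proportions per bin multiplied by bin number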
Listed here are variants together with their documented protein stability index.
The answer should be a number; do not append a unit.

Known results for variants:
S23G	2.03
L10N	4.61

Query: Name the recorded protein stability index of the variant listed here: G9V
Reply: 1.71

Query: Name the recorded protein stability index of the variant listed here: F22A
Reply: 2.33

Query: Name the recorded protein stability index of the variant listed here: R6Y
Reply: 3.07

Query: Name the recorded protein stability index of the variant listed here: L21Y
Reply: 1.91

Query: Name the recorded protein stability index of the variant listed here: L8T
Reply: 2.48

Query: Name the recorded protein stability index of the variant listed here: A3L
Reply: 1.77
